The origin of these recorded values is paper PMC10786891.

Target: T1, EsCas13d, nuclease-dead (Eubacterium siraeum, UniProt B0MS50, R295A;H300A;R849A;H854A)
T1 sequence: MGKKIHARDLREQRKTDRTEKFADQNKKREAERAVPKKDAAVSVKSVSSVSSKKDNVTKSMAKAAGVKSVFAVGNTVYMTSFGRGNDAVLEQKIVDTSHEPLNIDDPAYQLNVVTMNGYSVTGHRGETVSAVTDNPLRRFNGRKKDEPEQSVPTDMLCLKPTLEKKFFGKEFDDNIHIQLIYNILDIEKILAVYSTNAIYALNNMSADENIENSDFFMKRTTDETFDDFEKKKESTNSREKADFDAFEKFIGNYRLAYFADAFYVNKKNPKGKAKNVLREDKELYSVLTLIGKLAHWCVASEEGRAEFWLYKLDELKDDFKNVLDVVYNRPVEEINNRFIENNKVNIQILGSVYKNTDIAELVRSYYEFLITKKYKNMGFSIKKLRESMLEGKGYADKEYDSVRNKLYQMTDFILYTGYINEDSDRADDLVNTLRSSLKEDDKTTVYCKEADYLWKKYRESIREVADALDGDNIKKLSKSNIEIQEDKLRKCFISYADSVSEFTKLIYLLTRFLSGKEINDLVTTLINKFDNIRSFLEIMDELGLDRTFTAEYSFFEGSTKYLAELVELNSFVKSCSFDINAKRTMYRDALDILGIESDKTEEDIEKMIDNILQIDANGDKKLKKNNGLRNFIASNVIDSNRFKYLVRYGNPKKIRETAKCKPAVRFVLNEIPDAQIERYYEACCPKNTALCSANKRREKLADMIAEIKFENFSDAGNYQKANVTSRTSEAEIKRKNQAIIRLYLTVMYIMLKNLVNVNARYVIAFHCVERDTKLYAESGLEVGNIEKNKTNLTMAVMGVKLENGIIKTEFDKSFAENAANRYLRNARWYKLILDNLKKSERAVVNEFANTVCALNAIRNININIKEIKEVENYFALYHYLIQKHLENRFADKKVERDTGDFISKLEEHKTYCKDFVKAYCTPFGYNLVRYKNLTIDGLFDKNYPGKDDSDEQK
Experiment: crRNA (strand 1, pre-loaded); Mg2+; 40 mM Tris-HCl pH 7.5, 150 mM NaCl, 6 mM MgCl2, 1 mM DTT, 0.1% Tween-20, 0.2 mg/ml BSA; 25 C; 10 min per concentration, then washed
Details: tags: His6-TwinStrep-SUMO cleaved; N-terminal SNAP kept (SNAP-Surface 488); label: 3' end held by stalled T7 RNA polymerase
PROPERTY NAME: pKd
Reminder that pKd means the negative base-10 logarithm of the concentration expressed in mol/L.

// pKd lookup, binder = target 1 MT 5'PFS ACC 3'PFS UAC (mixed) RNA 1: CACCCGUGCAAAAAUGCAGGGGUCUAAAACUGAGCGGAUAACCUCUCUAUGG RNA 2: GGGAAUGGAUCCACAUCUACGAAUUCACCCCAUAGAGAGGUUAUCCGCUCAUACAGAUCGGAAGAGCACACGU , result: 7.51

Measured pKd, target 2 MT 5'PFS AUG 3'PFS UUC (mixed) RNA 1: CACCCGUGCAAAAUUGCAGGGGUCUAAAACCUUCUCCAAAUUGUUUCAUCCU RNA 2: GGGAAUGGAUCCACAUCUACGAAUUCAUGAGGAUGAAACAAUUUGGAGAAGUUCAGAUCGGAAGAGCACACGU : 7.68

Measured pKd, target 1 insG 3' of 22 (mixed) RNA 1: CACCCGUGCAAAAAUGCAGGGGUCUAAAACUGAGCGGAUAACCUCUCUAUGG RNA 2: GGGAAUGGAUCCACAUCUACGAAUUCGUACGCAUAGAGAGGUUAUCCGCUCACCGAGAUCGGAAGAGCACACGU : 7.51
